Biological target: T1, human IL-18 binding protein (human, UniProt O95998 31-194)
T1 sequence (looked up): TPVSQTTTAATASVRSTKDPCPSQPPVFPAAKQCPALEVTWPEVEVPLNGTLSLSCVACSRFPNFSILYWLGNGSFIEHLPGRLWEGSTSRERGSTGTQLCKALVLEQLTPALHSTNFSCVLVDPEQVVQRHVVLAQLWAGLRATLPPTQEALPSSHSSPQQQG
Test: cell-based or functional assay
Tick satisfied if HEK-Blue activity, +100 nM BP, DF-100,000 is 0.2 or greater. Tick not satisfied if HEK-Blue activity, +100 nM BP, DF-100,000 is less than 0.2.

binder: yeast display IL-18 variant K53D, S55N (ligand) YFGKLESKLSVIRNLNDQVLFIDQGNRPLFEDMTDSDMRDNAPRTIFIISMYDDNQPRGMAVTISVKSEKISTLSSENKIISFKEMNPPDNIKDTKSDIIFFQRSVPGHDNKMQFESSSYEGYFLASEKERDLFKLILKKEDELGDRSIMFTVQNED
class_name: not satisfied
//
binder: yeast display IL-18 variant K53Q, D54N, S55M, Q56H (ligand) YFGKLESKLSVIRNLNDQVLFIDQGNRPLFEDMTDSDMRDNAPRTIFIISMYQNMHPRGMAVTISVKSEKISTLSSENKIISFKEMNPPDNIKDTKSDIIFFQRSVPGHDNKMQFESSSYEGYFLASEKERDLFKLILKKEDELGDRSIMFTVQNED
class_name: not satisfied
//
binder: yeast display IL-18 variant K53S, S55F, R104K, H109Y (ligand) YFGKLESKLSVIRNLNDQVLFIDQGNRPLFEDMTDSDMRDNAPRTIFIISMYSDFQPRGMAVTISVKSEKISTLSSENKIISFKEMNPPDNIKDTKSDIIFFQKSVPGYDNKMQFESSSYEGYFLASEKERDLFKLILKKEDELGDRSIMFTVQNED
class_name: not satisfied
//
binder: yeast display IL-18 variant K53S, S55K (ligand) YFGKLESKLSVIRNLNDQVLFIDQGNRPLFEDMTDSDMRDNAPRTIFIISMYSDKQPRGMAVTISVKSEKISTLSSENKIISFKEMNPPDNIKDTKSDIIFFQRSVPGHDNKMQFESSSYEGYFLASEKERDLFKLILKKEDELGDRSIMFTVQNED
class_name: satisfied
//
binder: yeast display IL-18 variant S36E, D37E, D40K, N41T, K53T, S55Q, R104H (ligand) YFGKLESKLSVIRNLNDQVLFIDQGNRPLFEDMTDEEMRKTAPRTIFIISMYTDQQPRGMAVTISVKSEKISTLSSENKIISFKEMNPPDNIKDTKSDIIFFQHSVPGHDNKMQFESSSYEGYFLASEKERDLFKLILKKEDELGDRSIMFTVQNED
class_name: satisfied
//
binder: yeast display IL-18 variant K53S, S55G (ligand) YFGKLESKLSVIRNLNDQVLFIDQGNRPLFEDMTDSDMRDNAPRTIFIISMYSDGQPRGMAVTISVKSEKISTLSSENKIISFKEMNPPDNIKDTKSDIIFFQRSVPGHDNKMQFESSSYEGYFLASEKERDLFKLILKKEDELGDRSIMFTVQNED
class_name: satisfied
//
binder: yeast display IL-18 variant L5W, I22M, K53N, S55Y, Q56H (ligand) YFGKWESKLSVIRNLNDQVLFMDQGNRPLFEDMTDSDMRDNAPRTIFIISMYNDYHPRGMAVTISVKSEKISTLSSENKIISFKEMNPPDNIKDTKSDIIFFQRSVPGHDNKMQFESSSYEGYFLASEKERDLFKLILKKEDELGDRSIMFTVQNED
class_name: satisfied
